Each recorded value in this set is attributed to PubChem BioAssay (NCI).

Overview of reported growth across a group of compounds:
Tested on: UO-31 renal
Test: NCI-60 one-dose screen, 48 h (100 = growth as untreated, 0 = no growth, -100 = all killed)
Conditions: 10 µM unless noted
Description: Growth inhibition of the UO-31 human tumor cell line is measured as a screen for anti-cancer activity. Cells are grown in 96 well plates and exposed to the test compound for 48 hours. Compounds are tested at a single concentration, which is 10^-5 M for most compounds. The reported endpoint is percent growth (GI% or GIPRCNT), where numbers from 0 - 100% represent growth inhibition, and numbers from -100% - 0 represent cell death. For example, a value of 40 represents 60% growth inhibition. […]
The panel holds about 83,000 compounds, 20% with a hit somewhere; the sample as a whole holds those more often. Activity calls are given as the source filed them. How the source made its calls: active means growth percent below 10; inactive means the rest.

{"smiles": "CN1CCN(CC(=O)Nc2ccc3ncnc(Nc4ccc(Oc5cccc(C(F)(F)F)c5)c(Cl)c4)c3c2)CC1", "growth": "21.7% (inactive)"}
{"smiles": "CCOC(=O)C1=C(C)/C(=C\\c2[nH]c(C)c(C(=O)OCC)c2C)N=C1C", "growth": "73.7% (inactive)"}
{"smiles": "CCCCCCCCCCCCCCCCCCOc1ccccc1CC(=O)NCC[N+]1(C)CCCCC1", "growth": "76.2% (inactive)"}
{"smiles": "N#C/C(=C\\c1cn(Cc2ccccc2)c2ccccc12)C(=O)Nc1ncc(Cc2ccccc2Cl)s1", "growth": "-34.3% (active)"}
{"smiles": "CCNc1ccc(-c2nc3ccccc3n3cccc23)cc1", "growth": "51.6% (inactive)"}
{"smiles": "O=S(=O)(Nc1cc(Sc2cccc3cccnc23)c(O)c2ccccc12)c1ccccc1", "growth": "23.7% (inactive)"}
{"smiles": "CN1CCN(Cc2ccc(NC(=O)c3cncc(C#Cc4cnc5ccc(Cl)nn45)c3)cc2C(F)(F)F)CC1", "growth": "-11.5% (active)"}
{"smiles": "Cn1c(=O)c2[nH]c(SCC(=O)Nc3ccc(C(=O)/C=C/c4ccccc4Cl)cc3)nc2n(C)c1=O", "growth": "92.7% (inactive)"}

Please tell me: growth of Cc1n[nH]c2ccc(Br)cc2c1=O , system UO-31 renal?
75.8% (inactive)

Please tell me: growth of Cc1nnc(-c2ccc3c(c2)nc(/C=C/c2ccccc2)n3C2CCCCC2)o1 , system UO-31 renal?
58.2% (inactive)
